- Tested on: human keratinocytes (HaCaT)
- method: MTS cytotoxicity assay
- Assay type: cell-based
- condition: serum free media, one hour treatment
No end group written: not given here.
// HaCaT, concentration that caused 50% cell death (LC50) lookup, one value per entry
readout.label: HaCaT, concentration that caused 50% cell death (LC50)

{"columns": ["sequence.content", "value"],
 "data": [
  ["LRKIWWWW [WW294]", ">100 µM"],
  ["WLRKIWWW [WW293]", ">100 µM"],
  ["WWLRKIWW [WW292]", ">100 µM"]
]}

###

- Test system: A. baumannii B28-16
- Assay type: cell-based, Acinetobacter baumannii
- condition: B28-16
No end group written: not given here.
readout.label: Minimal Inhibitory Concentration (MIC), AB (µM)

{"columns": ["sequence.content", "value"],
 "data": [
  ["LRKIWWWW [WW294]", 12.5],
  ["KIWWWWLR [WW296]", 12.5],
  ["WWLRKIWW [WW292]", 12.5]
]}
